molecular target: T1, Taq DNA polymerase (Thermus aquaticus, UniProt P19821 1-832); test: AMC sensor, antibody immobilised
T1 construct: also called Taq enzyme; Taq DNA enzyme
T1 sequence (P19821 whole entry): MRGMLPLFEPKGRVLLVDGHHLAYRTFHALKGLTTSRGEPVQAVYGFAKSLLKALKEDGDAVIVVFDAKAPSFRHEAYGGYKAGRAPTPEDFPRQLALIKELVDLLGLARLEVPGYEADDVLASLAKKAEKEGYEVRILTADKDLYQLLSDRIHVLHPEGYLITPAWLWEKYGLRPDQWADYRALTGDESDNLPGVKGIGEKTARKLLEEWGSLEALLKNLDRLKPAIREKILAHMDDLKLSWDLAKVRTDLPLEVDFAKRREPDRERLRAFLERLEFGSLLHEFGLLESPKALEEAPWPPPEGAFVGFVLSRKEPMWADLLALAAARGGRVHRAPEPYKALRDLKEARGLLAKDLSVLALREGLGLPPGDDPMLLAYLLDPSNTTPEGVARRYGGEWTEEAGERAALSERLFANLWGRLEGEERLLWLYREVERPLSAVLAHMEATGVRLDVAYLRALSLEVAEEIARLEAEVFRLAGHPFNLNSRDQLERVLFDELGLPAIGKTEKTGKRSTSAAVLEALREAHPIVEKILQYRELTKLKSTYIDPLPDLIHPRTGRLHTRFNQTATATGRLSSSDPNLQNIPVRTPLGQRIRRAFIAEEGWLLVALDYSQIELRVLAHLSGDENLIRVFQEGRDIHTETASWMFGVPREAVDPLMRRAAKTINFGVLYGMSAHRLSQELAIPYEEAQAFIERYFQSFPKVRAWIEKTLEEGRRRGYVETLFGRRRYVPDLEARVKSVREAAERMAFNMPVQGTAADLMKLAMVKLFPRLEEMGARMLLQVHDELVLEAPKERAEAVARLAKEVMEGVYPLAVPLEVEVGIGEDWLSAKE
Each record here notes measured kon.
Please give a number only; it is taken to be in M⁻¹ s⁻¹.

[
  {
    "binder": "Mutation 1-16 (antibody, V domains shown, Mutation 1 background; CDRs built) VH: QVQLQQPGAELVKPGASVRLSCQTSVNTFSTYYIYWVKQRPGEGLEWIGGINPTSGGPVFNEKFKSKATLTVDTSSSTAYMQLSSLTSVDSAVYYCTRSLVRRGYYFDYWGQGTALTVSS VL: DIQMTQTTSSLSASLGDRVTISCRASQDIQNYINWYQQKPDGTIKLLIYYTSRLNSGVPSRFSGSGSGTDYSLTIANLEQEDIATYFCQQDDTLPITFGAGTKVELKR",
    "kon, M⁻¹ s⁻¹": 65100
  }
]

Then this binder:
Mutation 1-35 (antibody, V domains shown, Mutation 1 background; CDRs built) VH: QVQLQQPGAELVKPGASVRLSCQTSVDTFTTYYIYWVKQRPGEGLEWIGGVNPTSNPVFNEKFKSKATLTVDTSSSTAYMQLSSLTSVDSAVYYCTRSLIRRGYYFDYWGQGTALTVSS VL: DIQMTQTTSSLSASLGDRVTISCRASQDINNYINWYQQKPDGTIKLLIYYTSRLNSGLPSRFSGSGSGTDYSLTIANLEQEDIATYFCQQDDTLPVTFGAGTKVELKR yielded kon of 52400
